Values from patent US8329695B2

assay: Solubility in aqueous media; format: physicochemical; conditions: aqueous buffer, thermodynamic from solid; McIlvaine buffer pH 7.4; pH of the saturated solution 7.4
MEASUREMENT TYPE: solubility (µg/mL)
State just the number; it will be interpreted in µg/mL.

What solubility value was documented for this molecule, CC[C@@H]1C(=O)N(C)c2cnc(Nc3ccc(C(=O)N[C@H]4CC[C@H](N5CCN(CC6CC6)CC5)CC4)cc3OC)nc2N1C(C)C ?
2500

###

assay: Solubility in aqueous media; format: physicochemical; settings: aqueous buffer, thermodynamic from solid; McIlvaine buffer pH 6.0; pH of the saturated solution 6.3
MEASUREMENT TYPE: solubility

What solubility value was documented for this compound, CC[C@@H]1C(=O)N(C)c2cnc(Nc3ccc(C(=O)N[C@H]4CC[C@H](N5CCN(CC6CC6)CC5)CC4)cc3OC)nc2N1C(C)C ?
> 10 mg/mL
